Entry source: paper PMC4742067

Test target: T1, human B1R C-terminally tagged with FLAG (hB1R-FLAG) (human, UniProt P46663 1-353)
T1 construct: also called human B1R-FLAG; bradykinin B1 receptor; not shown: FLAG, C-terminal, kept
T1 sequence (looked up): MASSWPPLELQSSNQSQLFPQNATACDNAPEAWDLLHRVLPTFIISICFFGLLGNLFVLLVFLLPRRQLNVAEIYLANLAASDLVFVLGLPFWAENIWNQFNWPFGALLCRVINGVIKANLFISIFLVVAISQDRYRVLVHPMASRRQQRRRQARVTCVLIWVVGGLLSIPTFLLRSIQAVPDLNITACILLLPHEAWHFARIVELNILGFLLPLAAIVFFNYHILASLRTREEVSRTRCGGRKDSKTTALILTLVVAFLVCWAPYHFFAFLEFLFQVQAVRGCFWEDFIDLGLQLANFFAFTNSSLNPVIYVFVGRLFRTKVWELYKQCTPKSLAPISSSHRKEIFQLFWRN
Assay explanation: radioligand binding; competition of unlabeled pure peptides with 1 nM [^3H]Lys-des-Arg^9-BK on intact, adherent HEK 293a cells (24-well plates) transiently expressing hB1R-FLAG; one-site competition fit (series of Fig 2 and the Lys-des-Arg^9-BK curve of Fig 7)
Experimental context: one partner purified
Assignment: determine reported pIC50 for the given binders.
Units for pIC50: none; it is -log10 of a concentration expressed in mol/L.

Which measured pIC50 value corresponds to NGNGNGNGNGKRPPGFSPF (also called (Asn-Gly)5-Lys-des-Arg^9-BK) [synthetic S3-P1] ?
7.12

May I ask what pIC50 has been recorded for NGNGNGNGNGKRPPGFSPL [synthetic S3-P2] ?
6.18
